target system: recombinant human muscarinic receptor m3 (Homo sapiens, UniProt P20309)
Construct: expressed in transfected cells; host or cells: Chinese hamster ovary (CHO) cells, membrane preparation
Sequence (P20309 whole entry): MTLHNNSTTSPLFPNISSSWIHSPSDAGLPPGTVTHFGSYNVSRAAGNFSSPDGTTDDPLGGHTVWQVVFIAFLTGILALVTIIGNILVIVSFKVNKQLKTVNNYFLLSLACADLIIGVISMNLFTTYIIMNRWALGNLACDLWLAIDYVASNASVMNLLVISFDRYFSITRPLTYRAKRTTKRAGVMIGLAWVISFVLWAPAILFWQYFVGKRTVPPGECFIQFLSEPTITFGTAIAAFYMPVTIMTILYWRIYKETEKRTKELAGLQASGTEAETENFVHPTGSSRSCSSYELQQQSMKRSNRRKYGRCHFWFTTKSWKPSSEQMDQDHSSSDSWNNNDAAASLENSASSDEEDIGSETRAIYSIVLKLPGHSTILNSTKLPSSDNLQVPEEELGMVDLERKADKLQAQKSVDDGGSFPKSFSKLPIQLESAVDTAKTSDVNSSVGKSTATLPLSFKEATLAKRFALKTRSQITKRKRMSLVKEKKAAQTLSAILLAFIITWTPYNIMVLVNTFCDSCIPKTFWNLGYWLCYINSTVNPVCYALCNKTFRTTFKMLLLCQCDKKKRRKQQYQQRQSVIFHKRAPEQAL
protocol text: Radioligand binding studies, [3H]N-methyl scopolamine, scintillation proximity assay
experimental setup: CHO cell membranes, pIC50 converted to pKi by Cheng-Prusoff
pKi: −log10 of the molar value.
This listing pairs compounds with measured pKi.
property: pKi

>  <compound>
CCN(CC1CCN(C(=O)NC(C)C)CC1)C1CCc2ccc(NC(=O)c3ccc(F)cc3)cc2C1 (centres unmarked)

>  <data value>
6.19

$$$$
>  <compound>
CCCN(CC1CCN(C(=O)N2CCOCC2)CC1)C1CCc2ccc(N)cc2C1 (centres unmarked)

>  <data value>
6.73

$$$$
>  <compound>
CCCN(CC1CCN(C(=O)c2ccno2)CC1)C1CCc2ccc(OS(=O)(=O)C(F)(F)F)cc2C1 (centres unmarked)

>  <data value>
6.83

$$$$
>  <compound>
CCCN(CCC1CCN(C(=O)C2CCNCC2)CC1)[C@@H]1CCc2ccc(OC)cc2C1

>  <data value>
5.29

$$$$
>  <compound>
CCCN(CC1CCN(S(C)(=O)=O)CC1)C1CCc2ccc(N)cc2C1 (centres unmarked)

>  <data value>
6.78

$$$$
>  <compound>
CCCN(CC1CCN(C(=O)c2ccco2)CC1)C1CCc2cc(OC)c(OC)cc2C1 (centres unmarked)

>  <data value>
6.48

$$$$
>  <compound>
CCCN(CC1CCN(S(C)(=O)=O)CC1)C1CCc2ccc(-c3ccco3)cc2C1 (centres unmarked)

>  <data value>
6.22

$$$$
>  <compound>
CCN(CC1CCN(C(=O)N2CCOCC2)CC1)C1CCc2ccc(NC(=O)c3ccc(S(C)(=O)=O)cc3)cc2C1 (centres unmarked)

>  <data value>
5.92

$$$$

Each recorded value in this set is attributed to patent US6864266B2.
